Listed here: items and their measured EC50.
target-system: T1, CD47 on CCRF-CEM cells (human, UniProt Q08722 19-323)
T1 construct: Target is CD47 carried by the CD47-positive cell line CCRF-CEM; also called Cluster of Differentiation 47; integrin-associated protein
T1 sequence (Q08722 19-323): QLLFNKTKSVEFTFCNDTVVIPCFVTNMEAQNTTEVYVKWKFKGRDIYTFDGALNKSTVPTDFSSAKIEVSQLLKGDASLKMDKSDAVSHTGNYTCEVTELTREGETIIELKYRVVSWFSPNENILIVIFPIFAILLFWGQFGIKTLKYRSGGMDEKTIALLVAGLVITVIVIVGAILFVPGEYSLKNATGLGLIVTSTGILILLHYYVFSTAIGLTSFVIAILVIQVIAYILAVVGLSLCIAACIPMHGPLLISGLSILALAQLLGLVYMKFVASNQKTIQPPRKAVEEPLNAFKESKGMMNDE
assay-remarks: flow cytometry on antibody-opsonized CCRF-CEM cells, anti-human Alexa 647 secondary, median fluorescence, sigmoidal fit; Donor 1
Method: Phagocytosis was assayed by serum starving the macrophages in incomplete AIM V media for two hours. […] Samples were incubated for 30 minutes at room temperature, rinsed 2× and then resuspended in FACS buffer and analyzed on the Attune. The EC50 values refer to the concentration that gives half the maximum binding measured as median fluorescent intensity, and was determined by non-linear fit of a sigmoidal dose response within the GraphPad Prism software.
Only the number, expressed in µg/mL, is required.

binder	endpoint	unit-of-measurement	measured-number
Ab356/Ab1121 (HC Ab356, LC Ab1121) anti-CD47 antibody (antibody, V domains shown, FR and CDR L2 variant of AbParental; The label order is HC/LC although the head says 'LC/HC'; the row in running number order (r442) is used) VH: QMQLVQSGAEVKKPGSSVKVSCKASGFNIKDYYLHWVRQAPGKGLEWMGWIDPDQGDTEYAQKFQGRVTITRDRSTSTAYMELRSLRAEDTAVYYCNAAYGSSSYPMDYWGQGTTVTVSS VL: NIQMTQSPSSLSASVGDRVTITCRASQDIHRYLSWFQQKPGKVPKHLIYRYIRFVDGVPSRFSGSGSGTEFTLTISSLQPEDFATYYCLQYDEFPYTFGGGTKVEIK	EC50	µg/mL	0.19

From here, focus on the item given below.
Prompt line: Query (binder): Ab480/Ab1127 (HC Ab480, LC Ab1127) anti-CD47 antibody (antibody, V domains shown, FR and CDR L2 variant of AbParental; The label order is HC/LC although the head says 'LC/HC'; r460 is used) VH: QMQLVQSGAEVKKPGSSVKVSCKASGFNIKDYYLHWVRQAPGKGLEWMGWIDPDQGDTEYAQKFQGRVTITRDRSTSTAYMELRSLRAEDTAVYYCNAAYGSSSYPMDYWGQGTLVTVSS VL: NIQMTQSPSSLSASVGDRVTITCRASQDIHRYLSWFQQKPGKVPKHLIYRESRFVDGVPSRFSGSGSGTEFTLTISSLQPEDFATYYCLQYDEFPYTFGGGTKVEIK ; field requested: EC50
Response line: 0.08
